- assay.comment: The drug is tested on Bacteroides caccae strain: ATCC43185 for biotransformation. The drug concentrations were measured before and after a 12-h incubation by liquid-chromatography-coupled mass spectrometry (LC–MS)
- settings: 2 µM
attribute.measured: Bacterial Biotransformation

Entry CNS(=O)(=O)Cc1ccc2[nH]cc(CCN(C)C)c2c1.O=C(O)CCC(=O)O [SUMATRIPTAN SUCCINATE] — recorded Bacterial Biotransformation = Compound NOT metabolized

Entry Cc1ccccc1N1C(=O)c2cc(S(N)(=O)=O)c(Cl)cc2NC1C (stereo not given) — recorded Bacterial Biotransformation = Compound NOT metabolized

Entry CC(=O)OCC(CCn1cnc2cnc(N)nc21)COC(C)=O — recorded Bacterial Biotransformation = Compound metabolized

Entry C#C[C@]1(O)CC[C@H]2[C@@H]3CCC4=CC(=O)CC[C@@H]4[C@H]3CC[C@@]21CC — recorded Bacterial Biotransformation = Compound metabolized

Entry COc1ccc([C@@H]2Sc3ccccc3N(CCN(C)C)C(=O)[C@@H]2OC(C)=O)cc1 — recorded Bacterial Biotransformation = Compound metabolized

Entry Br.CN1CCC[C@@H]1Cc1c[nH]c2ccc(CCS(=O)(=O)c3ccccc3)cc12 [ELETRIPTAN HYDROBROMIDE] — recorded Bacterial Biotransformation = Compound NOT metabolized

Entry OC(CCN1CCCCC1)(c1ccccc1)C1CC2C=CC1C2 (stereo not given) — recorded Bacterial Biotransformation = Compound NOT metabolized

Entry Cc1cc2c(s1)Nc1ccccc1N=C2N1CCN(C)CC1 — recorded Bacterial Biotransformation = Compound NOT metabolized

Entry c1ccc2[nH]c(-c3cscn3)nc2c1 — recorded Bacterial Biotransformation = Compound NOT metabolized

// next entry
Entry CC(=O)OCC(=O)NCCCOc1cccc(CN2CCCCC2)c1 [ROXATIDINE ACETATE] — recorded Bacterial Biotransformation = Compound metabolized
